Where do these numbers come from? They come from PubChem BioAssay AID1963440.

- Tested on: NCI-H1417 complex spheroids, growth % test/control
- Protocol text: Anticancer human tumor NCI-H1417 cell line growth inhibition [Asc]; active means viability on the fitted dose curve at most 10% of control; inactive means the rest;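 further: spheroids exposed to compounds for 7 days; 100% = DMSO vehicle control wells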
- Experimental conditions: second compound 1 µM; first compound 1 µM
Assign a class; possible classes are label 1 for active, label 0 for inactive

For C=C(F)C(=O)N1CCN(c2nc(OCC3CCCN3C)nc3c2CCN(c2cccc4cccc(Cl)c24)C3)CC1CC#N (configuration not stated) + Cc1c(S(C)(=O)=O)c(-c2cc(F)cc(N3CCN(c4ccc(NS(=O)(=O)c5ccc(NC(CCN6CCC(C(=O)OCCCP(=O)(O)O)CC6)CSc6ccccc6)c(S(=O)(=O)C(F)(F)F)c5)cc4)CC3)c2)c(-c2ccc(Cl)cc2)n1C(C)C , which call appears in the assay record?
label 1

For COc1c(OCCCN2CCOCC2)ccc2c3n(c(=NC(=O)c4cnc(N)nc4)nc12)CCN3 + CNC(C)C(=O)NC1CN(S(=O)(=O)c2cccc(S(=O)(=O)N3CCC4CCC(C(=O)NC(c5ccccc5)c5ccccc5)N4C(=O)C(NC(=O)C(C)NC)C3)c2)CCC2CCC(C(=O)NC(c3ccccc3)c3ccccc3)N2C1=O , which call appears in the assay record?
label 0

====

Readings of viability, T/C for the listed molecules
- Test system: NCI-H1417 complex spheroids, growth % test/control
- Protocol text: Anticancer human tumor NCI-H1417 cell line growth inhibition [Asc];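 further: spheroids exposed to compounds for 7 days; 100% = DMSO vehicle control wells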
- Experimental conditions: second compound 1 µM; first compound 0.01 µM; active compounds read low
Your answer should be a plain number; it is taken to be in %.

Molecule: CNC(C)C(=O)NC1CN(S(=O)(=O)c2cccc(S(=O)(=O)N3CCC4CCC(C(=O)NC(c5ccccc5)c5ccccc5)N4C(=O)C(NC(=O)C(C)NC)C3)c2)CCC2CCC(C(=O)NC(c3ccccc3)c3ccccc3)N2C1=O (configuration not stated) + Cc1c(S(C)(=O)=O)c(-c2cc(F)cc(N3CCN(c4ccc(NS(=O)(=O)c5ccc(NC(CCN6CCC(C(=O)OCCCP(=O)(O)O)CC6)CSc6ccccc6)c(S(=O)(=O)C(F)(F)F)c5)cc4)CC3)c2)c(-c2ccc(Cl)cc2)n1C(C)C
Result value: 10.3

Here is the next item to consider.
What value of viability, T/C has been reported for the following molecule? COc1c(OCCCN2CCOCC2)ccc2c3n(c(=NC(=O)c4cnc(N)nc4)nc12)CCN3 + Cc1c(S(C)(=O)=O)c(-c2cc(F)cc(N3CCN(c4ccc(NS(=O)(=O)c5ccc(NC(CCN6CCC(C(=O)OCCCP(=O)(O)O)CC6)CSc6ccccc6)c(S(=O)(=O)C(F)(F)F)c5)cc4)CC3)c2)c(-c2ccc(Cl)cc2)n1C(C)C
9.99

====

- Test system: NCI-H1417 complex spheroids, growth % test/control
- Protocol text: Anticancer human tumor NCI-H1417 cell line growth inhibition [Asc];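 further: spheroids exposed to compounds for 7 days; 100% = DMSO vehicle control wells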
- Experimental conditions: second compound 0.0316 µM; first compound 3.16 µM; active compounds read low
Attribute measured: viability, T/C (%)
Your answer should be a plain number; it is taken to be in %.

Recorded results for 3 compounds are shown here.
Compound: C#Cc1c(F)ccc2cc(O)cc(-c3ncc4c(N5CC6CCC(C5)N6)nc(OCC56CCCN5CC(F)C6)nc4c3F)c12 (centres undefined) + CNC(C)C(=O)NC1CN(S(=O)(=O)c2cccc(S(=O)(=O)N3CCC4CCC(C(=O)NC(c5ccccc5)c5ccccc5)N4C(=O)C(NC(=O)C(C)NC)C3)c2)CCC2CCC(C(=O)NC(c3ccccc3)c3ccccc3)N2C1=O
System: NCI-H1417 complex spheroids, growth % test/control
Units symbol: %
Result value: 88.9

Compound: C=C(F)C(=O)N1CCN(c2nc(OCC3CCCN3C)nc3c2CCN(c2cccc4cccc(Cl)c24)C3)CC1CC#N (centres undefined) + CNC(C)C(=O)NC1CN(S(=O)(=O)c2cccc(S(=O)(=O)N3CCC4CCC(C(=O)NC(c5ccccc5)c5ccccc5)N4C(=O)C(NC(=O)C(C)NC)C3)c2)CCC2CCC(C(=O)NC(c3ccccc3)c3ccccc3)N2C1=O
System: NCI-H1417 complex spheroids, growth % test/control
Units symbol: %
Result value: 58.8

Compound: C=CC(=O)N1CCN(c2nc(=O)n(-c3c(C)ccnc3C(C)C)c3nc(-c4c(O)cccc4F)c(F)cc23)C(C)C1 (centres undefined) + CNC(C)C(=O)NC1CN(S(=O)(=O)c2cccc(S(=O)(=O)N3CCC4CCC(C(=O)NC(c5ccccc5)c5ccccc5)N4C(=O)C(NC(=O)C(C)NC)C3)c2)CCC2CCC(C(=O)NC(c3ccccc3)c3ccccc3)N2C1=O
System: NCI-H1417 complex spheroids, growth % test/control
Units symbol: %
Result value: 97.6

Here is the next item to consider.
What is its viability, T/C for NCI-H1417 complex spheroids, growth % test/control? Entry: O=C(c1cc(Cc2n[nH]c(=O)c3ccccc23)ccc1F)N1CCN(C(=O)C2CC2)CC1 + CNC(C)C(=O)NC1CN(S(=O)(=O)c2cccc(S(=O)(=O)N3CCC4CCC(C(=O)NC(c5ccccc5)c5ccccc5)N4C(=O)C(NC(=O)C(C)NC)C3)c2)CCC2CCC(C(=O)NC(c3ccccc3)c3ccccc3)N2C1=O
71.5

====

- Tested on: NCI-H1417 complex spheroids, growth % test/control
- Protocol text: Anticancer human tumor NCI-H1417 cell line growth inhibition [Asc];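 further: spheroids exposed to compounds for 7 days; 100% = DMSO vehicle control wells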
- Experimental conditions: second compound 1 µM; first compound 10 µM; active compounds read low
Attribute measured: viability, T/C (%)
Your answer should be a plain number; it is taken to be in %.

Recorded results for 2 compounds are shown here.
Compound: C=C(F)C(=O)N1CCN(c2nc(OCC3CCCN3C)nc3c2CCN(c2cccc4cccc(Cl)c24)C3)CC1CC#N (stereo not given) + CNC(C)C(=O)NC1CN(S(=O)(=O)c2cccc(S(=O)(=O)N3CCC4CCC(C(=O)NC(c5ccccc5)c5ccccc5)N4C(=O)C(NC(=O)C(C)NC)C3)c2)CCC2CCC(C(=O)NC(c3ccccc3)c3ccccc3)N2C1=O
viability, T/C [%]: 1.03
--
Compound: C=CC(=O)N1CCN(c2nc(=O)n(-c3c(C)ccnc3C(C)C)c3nc(-c4c(O)cccc4F)c(F)cc23)C(C)C1 (stereo not given) + Cc1c(S(C)(=O)=O)c(-c2cc(F)cc(N3CCN(c4ccc(NS(=O)(=O)c5ccc(NC(CCN6CCC(C(=O)OCCCP(=O)(O)O)CC6)CSc6ccccc6)c(S(=O)(=O)C(F)(F)F)c5)cc4)CC3)c2)c(-c2ccc(Cl)cc2)n1C(C)C
viability, T/C [%]: 6.31

What value of viability, T/C has been reported for the following compound? O=C(c1cc(Cc2n[nH]c(=O)c3ccccc23)ccc1F)N1CCN(C(=O)C2CC2)CC1 + CNC(C)C(=O)NC1CN(S(=O)(=O)c2cccc(S(=O)(=O)N3CCC4CCC(C(=O)NC(c5ccccc5)c5ccccc5)N4C(=O)C(NC(=O)C(C)NC)C3)c2)CCC2CCC(C(=O)NC(c3ccccc3)c3ccccc3)N2C1=O
32

What value of viability, T/C has been reported for the following compound? O=C(c1cc(Cc2n[nH]c(=O)c3ccccc23)ccc1F)N1CCN(C(=O)C2CC2)CC1 + Cc1c(S(C)(=O)=O)c(-c2cc(F)cc(N3CCN(c4ccc(NS(=O)(=O)c5ccc(NC(CCN6CCC(C(=O)OCCCP(=O)(O)O)CC6)CSc6ccccc6)c(S(=O)(=O)C(F)(F)F)c5)cc4)CC3)c2)c(-c2ccc(Cl)cc2)n1C(C)C
3.64

What value of viability, T/C has been reported for the following compound? C#Cc1c(F)ccc2cc(O)cc(-c3ncc4c(N5CC6CCC(C5)N6)nc(OCC56CCCN5CC(F)C6)nc4c3F)c12 (stereo not given) + CNC(C)C(=O)NC1CN(S(=O)(=O)c2cccc(S(=O)(=O)N3CCC4CCC(C(=O)NC(c5ccccc5)c5ccccc5)N4C(=O)C(NC(=O)C(C)NC)C3)c2)CCC2CCC(C(=O)NC(c3ccccc3)c3ccccc3)N2C1=O
66.8

====

Readings of viability, T/C for the listed compounds
- Test system: NCI-H1417 complex spheroids, growth % test/control
- Protocol text: Anticancer human tumor NCI-H1417 cell line growth inhibition [Asc];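 further: spheroids exposed to compounds for 7 days; 100% = DMSO vehicle control wells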
- Experimental conditions: second compound 1 µM; first compound 0.01 µM; active compounds read low
Your answer should be a plain number; it is taken to be in %.

Compound: NC1CCC(NC2CC2c2ccccc2)CC1 (stereo not drawn) + CNC(C)C(=O)NC1CN(S(=O)(=O)c2cccc(S(=O)(=O)N3CCC4CCC(C(=O)NC(c5ccccc5)c5ccccc5)N4C(=O)C(NC(=O)C(C)NC)C3)c2)CCC2CCC(C(=O)NC(c3ccccc3)c3ccccc3)N2C1=O
Attribute measured: viability, T/C
Units symbol: %
Result value: 88

What is its viability, T/C for NCI-H1417 complex spheroids, growth % test/control? Entry: CCN1CCN(Cc2ccc(Nc3ncc(F)c(-c4cc(F)c5nc(C)n(C(C)C)c5c4)n3)nc2)CC1 + CNC(C)C(=O)NC1CN(S(=O)(=O)c2cccc(S(=O)(=O)N3CCC4CCC(C(=O)NC(c5ccccc5)c5ccccc5)N4C(=O)C(NC(=O)C(C)NC)C3)c2)CCC2CCC(C(=O)NC(c3ccccc3)c3ccccc3)N2C1=O
109

What is its viability, T/C for NCI-H1417 complex spheroids, growth % test/control? Entry: O=C(c1ccc(F)c(F)c1Nc1ccc(I)cc1F)N1CC(O)([C@@H]2CCCCN2)C1 + Cc1c(S(C)(=O)=O)c(-c2cc(F)cc(N3CCN(c4ccc(NS(=O)(=O)c5ccc(NC(CCN6CCC(C(=O)OCCCP(=O)(O)O)CC6)CSc6ccccc6)c(S(=O)(=O)C(F)(F)F)c5)cc4)CC3)c2)c(-c2ccc(Cl)cc2)n1C(C)C
11.9
